quantity: melting point

CCCCOc1ccc(C(=O)Nc2ccc3cc(CN4CCCC4CC(C)C)cnc3c2C)cc1 (centres undefined)	128 to 130 °C
Cc1c(C)c2c(c(C)c1N)CC(C)(CN1CCN(C(=O)c3ccc([N+](=O)[O-])cc3)CC1)O2 (centres undefined)	154 to 158 °C

Query: Request the reported melting point associated with COC(=O)c1ccc(COc2ccc3cc(-c4ccc(-c5ccccc5)[nH]4)ccc3c2)c(C(=O)OC)c1
Reply: 203 to 205 °C

Query: Request the reported melting point associated with CCCCCCCCCCCCCCCCCCNC(=O)C(=O)NCCc1ccc(O)cc1
Reply: 167 °C

* * *

Form field: melting point (one value per entry).

CC12CCC3C(CCC4CCCCC43C)C1CC(F)C2=O (stereo not given)	148 to 150 °C
COc1cc2c(c(-c3cccc(Cl)c3Cl)c1)OC(CN)C2 (stereo not given)	159 to 161 °C
CC(C)(C)[Si](C)(C)Oc1ccc(CON2C(=O)c3ccccc3C2=O)cc1	76 to 77 °C
CC1SC(=O)NN=C1c1ccc2c(c1)C(C)(C)C(=O)N2C(=O)c1ccccc1 (stereo not given)	200 °C
COCCNC(=O)c1cc2c(nc(C)n2C)c2c1CCC(c1ccccc1)O2 (stereo not given)	254 to 256 °C
CCOC(=O)C(C)(C(=O)Nc1cc(Cl)cc(Cl)c1)S(C)=O (stereo not given)	124 to 127 °C
CCOc1ccc2c(c1)C(C)(c1ccccc1Cl)C(=O)N2S(=O)(=O)c1ccc(NC(=O)N(CC)CC)cc1OC (stereo not given)	137 °C
Oc1c(CN2CCCC2)cc(Nc2ccnc3cc(Cl)ccc23)cc1CN1CCCC1	92 °C
C=CCN(C(=O)NC(C)(C)C)c1nc(NC(=O)NC(C)(C)C)c2cc([N+](=O)[O-])ccc2n1	105 to 106 °C
CCn1c(C)nc2cc(C(=O)OC)ccc21	118 to 121 °C

Query: Request the reported melting point associated with CC(C)(C)OC(=O)[C@@H](C(N)c1ccccc1)[C@@H](O)C[C@@H](Cc1ccccc1)c1ncc2n1C(O)C(C)(C)C2=O (stereo not given in full)
Reply: 88 to 90 °C

Query: Request the reported melting point associated with CC(C)(C)C(=O)OCc1nc2cc3c(cc2c(=O)[nH]1)CCC3
Reply: 185 to 190 °C

Query: Request the reported melting point associated with CCCc1ccnc(C(=O)c2[nH]c3ccc(Cl)cc3c2CC(=O)O)c1
Reply: 208 to 209 °C

Query: Request the reported melting point associated with CS(=O)(=O)c1ccccc1S(=O)(=O)Nc1cccc2cc(C3=NCCS3)[nH]c12
Reply: 211 to 212 °C

Query: Request the reported melting point associated with O=C(O)CCc1cccc(Oc2ccccc2Cl)c1O
Reply: 90 to 92 °C

* * *

quantity: melting point

Answered cases to consult:
Cc1ccc(C(=O)C2=C(O)C(=O)N(c3ccc(C)nn3)C2c2cccc(OC(C)C)c2)cc1 (stereo not given)	243 to 245 °C
S=C(Nc1ccccc1)Nc1ncccc1OCc1ccccc1	107 to 109 °C
CCOC(=O)C1=CCCCC1S(=O)(=O)Nn1cccc1C1CC1 (stereo not given)	95 to 96 °C
Cn1ncc(C2=CC(=O)CCC2)c1S(N)(=O)=O	160 to 165 °C
CP1(=O)OCc2ccccc21 (stereo not given)	70 to 72 °C

Query: Request the reported melting point associated with Oc1ccc(Nc2ccc3cc(O)ccc3c2)cc1
Reply: 195 to 196 °C

Query: Request the reported melting point associated with CCCCN(CCCCO)c1ccc(C=Cc2ccc(C=CC3=C(C#N)C(=C(C#N)C#N)OC3(C)C(F)(F)F)s2)c(OCc2ccccc2)c1 (stereo not given)
Reply: 176 to 178 °C

Query: Request the reported melting point associated with [N-]=[N+]=C1C(=O)CCc2ccccc21
Reply: 42.5 to 44.2 °C

Query: Request the reported melting point associated with C[Si](C)(C)CCCOC1CCN(c2ccc([N+](=O)[O-])cc2)C1 (stereo not given)
Reply: 68 °C

Query: Request the reported melting point associated with OC(CNC1=NCCN1)c1cccc(Cl)c1 (stereo not given)
Reply: 108 °C

* * *

quantity: melting point (°C)

O=C(O)C1CC(O)CN1C(=O)c1ccc2c(c1)OCCO2 (stereo unspecified)	142

P = COc1ccc(-n2c(-c3ccccc3)cnc2S)cc1
Q = Cc1cc(-c2cccc(C3=Nc4cc(N5CCCC5)c(C#N)cc4NC(=O)C3)c2)on1
Query: Between the two listed entries P and Q , which has its melting point at the higher number? Lab note: record the label of whichever item you select.
Reply: Q

* * *

quantity: melting point

Answered cases to consult:
CC(C)C(=O)Nc1ccnc(-c2ccncc2)n1	215 to 217 °C
O=[N+]([O-])c1cccc(/C=C/c2nc(C3CCC3)cs2)c1	78 to 80 °C
Cc1ccc(CCc2ccccc2Br)c(N)c1	67 to 69 °C
CCC(=O)c1ccc(OC(C)(C)C(=O)OC)cc1	47 to 49 °C
COC(=O)c1ccccc1COc1ccc(-c2cc(O)c(SCCc3ccccc3)c(=O)o2)cc1	161 to 162 °C

Now, please, on to the next compound.
Query: Request the reported melting point associated with Nc1cccc(Cc2cc(O)ccc2O)c1
Reply: 151 to 152 °C

* * *

Form field: melting point (one value per entry).

CCCN1CC(CSC)=C[C@H]2Cc3n[nH]cc3C[C@@H]21 (relative stereo)	133 to 134 °C

Query: Request the reported melting point associated with Clc1ccc2c(c1)C(c1ccccc1Cl)=NCc1cncnc1-2
Reply: 120 to 121 °C

Query: Request the reported melting point associated with CCCCCCc1cc2c(cc1C(=O)Oc1ccc(C(=O)OCc3ccccc3)cn1)C(C)(C)CCC2(C)C
Reply: 94 to 95 °C

Query: Request the reported melting point associated with C=C1C(=C)C2OC1C1=C2Cc2c(cccc2OC)C1 (stereo not drawn)
Reply: 145 to 147 °C

Query: Request the reported melting point associated with OC(COc1ccc(-n2cncn2)cc1)CN1CCN(c2ccc(F)cc2)CC1 (stereo not drawn)
Reply: 149 to 150 °C

Query: Request the reported melting point associated with O=c1ccn(CCO)c(C(O)c2ccc3ccccc3c2)c1OCc1ccccc1 (stereo not drawn)
Reply: 110 to 112 °C

Query: Request the reported melting point associated with O=C(c1cc(C(F)(F)F)cc(C(F)(F)F)c1)N1CCN(C(=O)CN2CCC(O)(c3ccccc3)CC2)C(c2ccc(Cl)c(Cl)c2)C1 (racemic)
Reply: 104 to 106 °C

Query: Request the reported melting point associated with COc1cc(OC)c(-c2cc3ccccc3n2C)cc1C=CC(=O)c1ccc(S(=O)(=O)NO)cc1
Reply: > 260 °C

* * *

quantity: melting point

CCOC(=O)NC(=NCCCc1c[nH]cn1)NCCSCc1ccccc1	91 to 92 °C
Cn1ncnc1COc1nn2c(-c3ccccc3F)nncc2c1-c1cccc(-c2cccnc2)c1	157 to 163 °C
CCOC(=O)C1CCc2c([nH]c3ccc(Cl)cc23)C1 (stereo not given)	141 to 142 °C
Cc1cnc2c(NC(=O)c3c(Cl)cccc3Cl)cccc2c1Oc1ccccc1	168 to 170 °C
O=C(NC(=S)Nc1nc(-c2ccc3c(c2)CCCC3)cs1)c1ccc(Cl)cc1	193 to 194 °C

Query: Request the reported melting point associated with CCOC1(OCC)CCc2c(ccc3c(=O)c4cc(C(=O)O)ccc4oc23)O1
Reply: 191 to 193 °C

Query: Request the reported melting point associated with CCOC(=O)C1=C(c2ccc(-n3c(C)nc4cnccc43)cc2)NC(C)=C(C(=O)OCCC#N)C1c1ccccc1Cl (stereo not given)
Reply: 177 to 179 °C

Query: Request the reported melting point associated with CC1(C)CC(=O)OC(C(Cl)(Cl)Cl)C1Cl (stereo not given)
Reply: 83 to 84 °C

Query: Request the reported melting point associated with NS(=O)(=O)c1ccc(NC(=O)C(=O)N2CCC(Cc3ccc(F)cc3)CC2)cc1
Reply: 201 to 203 °C

Query: Request the reported melting point associated with Cc1ccc(-c2cccc(CCl)n2)cc1
Reply: 94 °C

* * *

Form field: melting point (one value per entry).

Answered cases to consult:
COC(=O)c1cccc2c(CCl)c(C)sc12	125 to 126 °C
Cc1ccc2c(c1)C=Cn1c(n[nH]c1=O)C2	232 to 234 °C
CC(CC1CCCCC1)N(C)C(=O)COCC(=O)O (stereo unspecified)	90 to 91 °C
COc1c(C)cc(NC(=O)C(C)(C)C)cc1C	126 to 128 °C
CC(C(=O)O)c1ccc2ocnc2c1 (stereo unspecified)	126 to 128 °C

Query: Request the reported melting point associated with O=[N+]([O-])c1cc(Cl)c(Oc2ccccc2)cc1NCc1cccc(C(F)(F)F)c1
Reply: 140 to 142 °C

Query: Request the reported melting point associated with O=C(O)C1C=Nc2c(ccc3cc(C(=O)N4CCc5ccccc5C4)cnc23)C1=O (stereo unspecified)
Reply: 171 to 182 °C

Query: Request the reported melting point associated with CC(C)(C)c1cc(C(=O)c2cccs2)cc2c1OCC2(C)C
Reply: 103 to 105 °C

Query: Request the reported melting point associated with N#Cc1cccc2c1C(O)CC2 (stereo unspecified)
Reply: 73 °C

Query: Request the reported melting point associated with Cc1cc(C)c(-n2ccc3c(N)n[nH]c(=O)c32)c(C)c1
Reply: 290 to 292 °C

Query: Request the reported melting point associated with COc1cc(N)ccc1S(=O)(=O)Nc1ccc(C)cc1
Reply: 158 to 160 °C

Provenance of the data: a melting point compilation (Tetko et al.; mined from patent text by program, amines drawn as free bases though some values may be those of a salt)
